tested on: MCF10A; assay: perturbation Mahalanobis distance of morphological profile vs DMSO controls (Mahalanobis distance (SD units)); higher = stronger morphological change, active = 7 or more; details: screen batch: Batch1_Mahalanobis_Distance; 72 h
Classification field: enter fulfilled for perturbation Mahalanobis distance values not below 3, not fulfilled for values below it.

I'd appreciate it if you could say whether CCS(=O)(=O)CCn1c([N+](=O)[O-])cnc1C [Tinidazole] (192.9 µM) has perturbation Mahalanobis distance at least equal to 3.
not fulfilled

---
Hello, I need to know if CN1CCC(=C2c3ccccc3CCc3cccnc32)CC1 [Azatadine] (0.43 µM) has measured perturbation Mahalanobis distance not below 3. Thanks!
not fulfilled

Repeat for the following compound: Nc1ncn([C@@H]2O[C@H](CO)[C@@H](O)[C@H]2O)c(=O)n1 [Azacitidine] (15.4 µM)
fulfilled

Next up: CC[C@]1(O)C[C@H]2CN(CCc3c([nH]c4ccccc34)[C@@](C(=O)OC)(c3cc4c(cc3OC)N(C)[C@H]3[C@@](O)(C(=O)OC)[C@H](OC(C)=O)[C@]5(CC)C=CCN6CC[C@]43[C@@H]65)C2)C1 [Vinblastine] (0.12 µM)
fulfilled
